Parameter Human M4 Emin: see the listing below.
Molecular target: human mAChR M4 (Homo sapiens, UniProt P08173)
Construct: expressed in transfected cells; host or cells: CHO-K1 (ATCC), stably co-expressing chimeric G protein Gqi5
Assay: mAChR M4 cell-based functional assay (calcium mobilization, EC80 acetylcholine), human M4
Conditions: Table 10
Procedure: Human or rat M4 cDNA, along with the chimeric G protein Gqi5, were transfected into Chinese hamster ovary (CHO-K1) cells purchased from the American Type Culture Collection using Lipofectamine2000. […] Calcium flux was measured using the Functional Drug Screening System (FDSS) 6000 or 7000 (Hamamatsu Corporation, Tokyo, Japan) as an increase in the fluorescent static ratio. […] Agonist activity was analyzed as a concentration-dependent increase in calcium mobilization upon compound addition. […]
parameter measured: Human M4 Emin (%)

- compound: "CS(=O)(=O)Nc1ccc(CN2C[C@H]3C[C@H](Nc4ccc(-c5cc(F)ccc5Cl)nn4)C[C@H]3C2)cc1"
  study target: "human mAChR M4 (Homo sapiens, UniProt P08173)"
  quantitative result: 3
- compound: "Cc1nn(C)cc1-c1ccc(N[C@H]2C[C@@H]3CN(CC4CC5C=CC4C5)C[C@@H]3C2)nc1 (stereo partly shown)"
  study target: "human mAChR M4 (Homo sapiens, UniProt P08173)"
  quantitative result: 3
- compound: "Cc1cnn(C)c1-c1ccc(NC(=O)[C@H]2C[C@@H]3CN(CCC(C)(C)C)C[C@@H]3C2)nn1"
  study target: "human mAChR M4 (Homo sapiens, UniProt P08173)"
  quantitative result: 4
- compound: "Clc1ccc(N[C@H]2C[C@@H]3CN(CC4CCOCC4)C[C@@H]3C2)nn1"
  study target: "human mAChR M4 (Homo sapiens, UniProt P08173)"
  quantitative result: 29
- compound: "Fc1cnc(Cl)c(-c2ccc(N[C@H]3C[C@@H]4CN(CC5CCOCC5)C[C@@H]4C3)nn2)c1"
  study target: "human mAChR M4 (Homo sapiens, UniProt P08173)"
  quantitative result: 4
- compound: "FC(F)Oc1ccc(-c2ccc(N[C@H]3C[C@@H]4CN(CC5CCOCC5)C[C@@H]4C3)nn2)cc1"
  study target: "human mAChR M4 (Homo sapiens, UniProt P08173)"
  quantitative result: 3
- compound: "CC(C)(C)CCN1C[C@H]2C[C@H](Nc3ccc(-c4ccc(F)cc4Cl)nn3)C[C@H]2C1"
  study target: "human mAChR M4 (Homo sapiens, UniProt P08173)"
  quantitative result: 4

====

target: human mAChR M4 (Homo sapiens); construct: expressed in transfected cells; host or cells: CHO-K1 (ATCC), stably co-expressing chimeric G protein Gqi5; assay: mAChR M4 cell-based functional assay (calcium mobilization, EC80 acetylcholine), human M4; conditions: Table 9; M4/Gqi5/CHO-K1 cells, decrease of EC80 acetylcholine response
pIC50: −log10 of the molar value.

- molecule: "Cc1nn(C)cc1-c1ccc(N[C@H]2C[C@@H]3CN(CC(C)C(C)(C)C)C[C@@H]3C2)nn1 (some centres unmarked)"
  pIC50: 8.70
- molecule: "Cc1cccnc1CN1C[C@H]2C[C@@H](Oc3ccc(-c4cc(F)ccc4Cl)nn3)C[C@H]2C1"
  pIC50: 5.84
- molecule: "CC(C)(C)CCN1C[C@H]2C[C@H](CNc3ccc(-c4cc(F)ccc4Cl)nn3)C[C@H]2C1"
  pIC50: 7.72
- molecule: "Cc1cnn(C)c1-c1ccc(OCC2C[C@@H]3CN(Cc4ccccc4)C[C@@H]3C2)nn1 (some centres unmarked)"
  pIC50: 5.54
- molecule: "CC(CN1C[C@H]2C[C@@H](Oc3ccc(-c4cc(F)ccc4Cl)nn3)C[C@H]2C1)C(C)(C)C (some centres unmarked)"
  pIC50: 6.37
- molecule: "Cc1nn(C)cc1-c1ccc(N[C@H]2C[C@@H]3CN(CC4CC5C=CC4C5)C[C@@H]3C2)nn1 (some centres unmarked)"
  pIC50: 9.52
- molecule: "Cc1cnn(C)c1-c1ccc(NC[C@H]2C[C@@H]3CN(CC4CCOCC4)C[C@@H]3C2)nn1"
  pIC50: 5.42
- molecule: "Cc1cnn(C)c1-c1ccc(N[C@H]2C[C@@H]3CN(CC4CC5C=CC4C5)C[C@@H]3C2)nn1 (some centres unmarked)"
  pIC50: 9.10
- molecule: "Cc1cnn(C)c1-c1ccc(N[C@H]2C[C@@H]3CN(Cc4ccccc4F)C[C@@H]3C2)nn1"
  pIC50: 6.71
- molecule: "Cc1nn(C)cc1-c1ccc(N[C@H]2C[C@@H]3CN(CC4CCCCC4)C[C@@H]3C2)nn1"
  pIC50: 8.00
- molecule: "Fc1ccc(Cl)c(-c2ccc(OCC3C[C@@H]4CN(Cc5ccccc5)C[C@@H]4C3)nn2)c1 (some centres unmarked)"
  pIC50: 5.60
- molecule: "Fc1ccc(Cl)c(-c2ccc(OCC3C[C@@H]4CN(CC5CCCOC5)C[C@@H]4C3)nn2)c1 (some centres unmarked)"
  pIC50: 6.07
- molecule: "Fc1ccc(Cl)c(-c2ccc(OCC3C[C@@H]4CN(Cc5ccccc5F)C[C@@H]4C3)nn2)c1 (some centres unmarked)"
  pIC50: 5.25
- molecule: "Cc1cccnc1CN1C[C@H]2C[C@H](Nc3ccc(-c4cn(C)nc4C)nn3)C[C@H]2C1"
  pIC50: 8.85
- molecule: "Cc1nn(C)cc1-c1ccc(OCC2C[C@@H]3CN(CC4CCCCC4)C[C@@H]3C2)nn1 (some centres unmarked)"
  pIC50: 6.78
- molecule: "Cc1nn(C)cc1-c1ccc(N[C@H]2C[C@@H]3CN(Cc4ccccn4)C[C@@H]3C2)nn1"
  pIC50: 7.34
- molecule: "Cc1nn(C)cc1-c1ccc(OCC2C[C@@H]3CN(CC4CCCOC4)C[C@@H]3C2)nn1 (some centres unmarked)"
  pIC50: 5.60
- molecule: "Fc1ccc(Cl)c(-c2ccc(N[C@H]3C[C@@H]4CN(Cc5ccccc5F)C[C@@H]4C3)nn2)c1"
  pIC50: 7.84
- molecule: "Cc1nn(C)cc1-c1ccc(OCC2C[C@@H]3CN(CC45CC6CC(CC(C6)C4)C5)C[C@@H]3C2)nn1 (some centres unmarked)"
  pIC50: 7.09
- molecule: "CCCC(C)CN1C[C@H]2C[C@H](Nc3ccc(-c4cc(F)ccc4Cl)nn3)C[C@H]2C1 (some centres unmarked)"
  pIC50: 8.00
- molecule: "Cc1cnn(C)c1-c1ccc(OCC2C[C@@H]3CN(CC4CCCCC4)C[C@@H]3C2)nn1 (some centres unmarked)"
  pIC50: 6.65
- molecule: "CCC(C)CN1C[C@H]2CC(COc3ccc(-c4cc(F)ccc4Cl)nn3)C[C@H]2C1 (some centres unmarked)"
  pIC50: 6.23
- molecule: "Cc1nn(C)cc1-c1ccc(OCC2C[C@@H]3CN(Cc4ccc5c(c4)OCO5)C[C@@H]3C2)nn1 (some centres unmarked)"
  pIC50: 6.48
- molecule: "CCCC(C)CN1C[C@H]2C[C@H](Nc3ccc(-c4cn(C)nc4C)nn3)C[C@H]2C1 (some centres unmarked)"
  pIC50: 8.32
- molecule: "Cc1cnn(C)c1-c1ccc(NCCC2C[C@@H]3CN(CC4CCCOC4)C[C@@H]3C2)nn1 (some centres unmarked)"
  pIC50: 7.56
- molecule: "Cc1cnn(C)c1-c1ccc(NCCC2C[C@@H]3CN(CC4CCOCC4)C[C@@H]3C2)nn1 (some centres unmarked)"
  pIC50: 7.54
- molecule: "Cc1cnn(C)c1-c1ccc(NCCC2C[C@@H]3CN(CCC(C)(C)C)C[C@@H]3C2)nn1 (some centres unmarked)"
  pIC50: 8.70
- molecule: "Fc1ccc(CN2C[C@H]3CC(COc4ccc(-c5cc(F)ccc5Cl)nn4)C[C@H]3C2)cc1 (some centres unmarked)"
  pIC50: 5.47
- molecule: "CCC(C)CN1C[C@H]2C[C@H](Nc3ccc(-c4c(C)cnn4C)nn3)C[C@H]2C1 (some centres unmarked)"
  pIC50: 7.04

====

Recorded measurements of Emin, one per entry
Biological target: human mAChR M4 (Homo sapiens)
Construct: expressed in transfected cells; host or cells: CHO-K1 (ATCC), stably co-expressing chimeric G protein Gqi5
Sequence (P08173 1-479): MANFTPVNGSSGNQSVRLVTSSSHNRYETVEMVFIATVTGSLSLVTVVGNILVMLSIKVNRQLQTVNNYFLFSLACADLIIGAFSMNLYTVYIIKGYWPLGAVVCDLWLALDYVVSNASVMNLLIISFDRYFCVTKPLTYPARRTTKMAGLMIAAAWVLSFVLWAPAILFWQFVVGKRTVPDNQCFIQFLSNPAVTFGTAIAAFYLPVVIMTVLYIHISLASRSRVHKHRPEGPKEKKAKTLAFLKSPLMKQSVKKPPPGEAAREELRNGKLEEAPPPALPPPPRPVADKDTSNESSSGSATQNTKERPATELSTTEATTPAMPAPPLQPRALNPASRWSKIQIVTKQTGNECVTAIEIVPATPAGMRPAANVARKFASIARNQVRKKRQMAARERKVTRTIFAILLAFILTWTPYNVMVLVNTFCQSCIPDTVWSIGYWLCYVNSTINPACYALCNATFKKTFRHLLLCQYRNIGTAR
Experiment: mAChR M4 cell-based functional assay (calcium mobilization, EC80 acetylcholine), human M4
Conditions: Table 9; human M4; % ACh maximum at 30 μM
parameter measured: Emin (%)

- compound: "Fc1ccc(CN2C[C@H]3CC(COc4ccc(-c5cc(F)ccc5Cl)nn4)C[C@H]3C2)cc1 (stereo partly shown) [Compound 116]"
  parameter measured: "Emin"
  quantitative result: 6.49
- compound: "Cc1cccnc1CN1C[C@H]2C[C@H](Nc3ccc(-c4c(C)cnn4C)nn3)C[C@H]2C1 [Compound 24]"
  parameter measured: "Emin"
  quantitative result: 5.36
- compound: "Cc1cnn(C)c1-c1ccc(NCCC2C[C@@H]3CN(CC4CCOCC4)C[C@@H]3C2)nn1 (stereo partly shown) [Compound 125]"
  parameter measured: "Emin"
  quantitative result: 4.41
- compound: "Cc1cnn(C)c1-c1ccc(NC[C@H]2C[C@@H]3CN(CC4CCCOC4)C[C@@H]3C2)nn1 (stereo partly shown) [Compound 67]"
  parameter measured: "Emin"
  quantitative result: 17.2
- compound: "Cc1nn(C)cc1-c1ccc(O[C@@H]2C[C@@H]3CN(CC4CCCCC4)C[C@@H]3C2)nn1 [Compound 49]"
  parameter measured: "Emin"
  quantitative result: 3.17
- compound: "CC(C)(C)CCN1C[C@H]2C[C@@H](Oc3ccc(-c4cc(F)ccc4Cl)nn3)C[C@H]2C1 [Compound 54]"
  parameter measured: "Emin"
  quantitative result: 3.07
- compound: "CCCC(C)CN1C[C@H]2CC(COc3ccc(-c4c(C)cnn4C)nn3)C[C@H]2C1 (stereo partly shown) [Compound 82]"
  parameter measured: "Emin"
  quantitative result: 4.50
